The origin of these recorded values is the RNAGym collection of RNA variant scans (doi:10.1101/gr.219683.116).

Documented exon inclusion enrichment index across a set of variants
B1: mRNA-splicing (parent)
chain: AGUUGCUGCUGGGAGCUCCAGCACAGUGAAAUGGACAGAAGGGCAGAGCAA

Variants of: B1
Experiment: exon inclusion enrichment index; higher = more inclusion; WT1 exon 5 minigene, HEK293
Give the figure only, with no unit attached.

mutant_id	measured_attribute	assay_value
G5A C6G U7G C9A A20G	exon inclusion enrichment index	0.00245

Alright, here's another variant for you.
Prompt line: Report exon inclusion enrichment index for G5C C6A U7C G8A U10A C16A U17A
Response line: 0.05
